Biological target: T1, human neuropeptide Y2 (NPY2) receptor (human, UniProt P49146 1-381)
T1 sequence (looked up): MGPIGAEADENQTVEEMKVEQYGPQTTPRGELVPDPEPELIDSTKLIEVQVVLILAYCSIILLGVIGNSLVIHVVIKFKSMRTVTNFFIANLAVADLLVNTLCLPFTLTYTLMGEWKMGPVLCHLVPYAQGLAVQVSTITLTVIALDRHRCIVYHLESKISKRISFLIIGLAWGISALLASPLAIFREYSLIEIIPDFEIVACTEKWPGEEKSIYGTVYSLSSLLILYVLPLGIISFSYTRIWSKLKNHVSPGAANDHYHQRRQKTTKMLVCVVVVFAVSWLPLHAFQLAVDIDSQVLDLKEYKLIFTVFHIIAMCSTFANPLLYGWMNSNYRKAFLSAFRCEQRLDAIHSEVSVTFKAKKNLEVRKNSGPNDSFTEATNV
Experiment: cell-based or functional assay
Starred links: 1 amine or outer side, 2 acyl side, 3 side chain; linkers in the order of their positions; H or OH if unused. Non-standard residues stand in square brackets, D forms with d. Groups on a side chain read outwards from the residue. No end group written: not given here. *: point of attachment. C20 diacid = O=C(O)CCCCCCCCCCCCCCCCCCC(=O)*; γGlu = O=C(O)[C@H](CCC(=O)[*:2])N[*:1]; AEEA = NCCOCCOCC(=O)O; Aib = CC(C)(N)C(=O)O
Quick list: EC50, CreLuc assay, 100% hP per entry.
Parameter Measured: EC50, CreLuc assay, 100% hP (nM)

>>> endpoint_result("Y[Aib]EGTFTSDYSI[Aib]LEKQAQ[Aib]AFVEWLIK([γGlu-γGlu-γGlu-γGlu-γGlu-γGlu-C20 diacid])GGGSEYVSLRHYYNWLTRQRY-NH2 (also: TFA salt) [Compound 65]")
24.2
>>> endpoint_result("Y[Aib]EGTFTSDYSI[Aib]LEKQAQ[Aib]AFVQWLIKGGPSYYASLRHYYNWLTRQRY-NH2 (not fully specified (residue 28); also: TFA salt) [Compound 59]")
29.9
>>> endpoint_result("YXEGTFTSDYSIXLEKQAEXAFVQWLIKGGPSSGASLRHYYNWLTRQRY (Aib at 2, 13, 20; K28 side chain: C18DA-gGlu-gGlu-gGlu-gGlu-gGlu-gGlu-eLys; C-terminal NH2) [Compound 51]")
42.2
>>> endpoint_result("YXEGTFTSDYSIXLEKQAQXAFVQWLIKGGPSSYVSLRHYYNWLTRQRY (Aib at 2, 13, 20; K28 side chain: C20DA-gGlu-gGlu-gGlu-gGlu-gGlu-gGlu-eLys; C-terminal NH2) [Compound 15]")
15.4
>>> endpoint_result("YXEGTFTSDYSIXLEKQAQXAFVQWLIKGGPRYYASLRHYYNWLTRQRY (Aib at 2, 13, 20; K28 side chain: C20DA-gGlu-gGlu-gGlu-gGlu-gGlu-gGlu-eLys; C-terminal NH2) [Compound 14]")
28.5
>>> endpoint_result("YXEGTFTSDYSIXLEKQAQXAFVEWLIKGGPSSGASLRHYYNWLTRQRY (Aib at 2, 13, 20; NMeR 48; K28 side chain: C20DA-gGlu-gGlu-gGlu-gGlu-gGlu-gGlu-eLys; C-terminal NH2) [Compound 83]")
80.6
>>> endpoint_result("YXEGTFTSDYSIXLEKQAQXAFVQWLIKGGPSSGVSLRHYYNWLTRQRY (Aib at 2, 13, 20; K28 side chain: C20DA-gGlu-gGlu-gGlu-gGlu-gGlu-gGlu-eLys; C-terminal NH2) [Compound 47]")
30.5
>>> endpoint_result("YXEGTFTSDYSIXLEKQAQXEFVQWLIKGGPSSGASLRHYYNWLTRQRY (Aib at 2, 13, 20; K28 side chain: C20DA-gGlu-gGlu-gGlu-gGlu-gGlu-OEG-OEG; C-terminal NH2) [Compound 36]")
26.8
>>> endpoint_result("Y[Aib]EGTFTSDYSI[Aib]LEKQAQ[Aib]AFVQWLIK([AEEA-AEEA-γGlu-γGlu-γGlu-γGlu-C20 diacid])GGPEEPASLRHYYNWLTRQRY-NH2 (also: TFA salt) [Compound 77]")
46.3
>>> endpoint_result("YXEGTFTSDYSIXLEKQAQXAFVEWLIKGGPSSGESXRHYYNWLTRQRY (Aib at 2, 13, 20, 37; K28 side chain: C20DA-gGlu-gGlu-gGlu-gGlu-gGlu-gGlu-eLys; C-terminal NH2) [Compound 49]")
36.8
